Exercise: for every item that follows, state its recorded self-cleavage kobs at 640 uM GlcN6P.
B1: glmS ribozyme (parent)
chain: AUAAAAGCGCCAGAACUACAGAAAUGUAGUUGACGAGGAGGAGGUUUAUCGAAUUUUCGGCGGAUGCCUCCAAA

Variants of: B1
Assay: self-cleavage kobs at 640 uM GlcN6P; higher = faster cleavage; RNA array
Details: with glucosamine-6-phosphate
This sample holds only a part of the variants without activity.
One number for each entry, in s⁻¹.

Query: Which value of self-cleavage kobs at 640 uM GlcN6P has been reported for A12G G40A in the records?
Result: 9.61e-05

Query: Thanks! And U30G A52G ?
Result: 9.63e-05

Query: Thanks! And A12U A15C C71A ?
Result: 0.000661

Query: Thanks! And G29A G41U ?
Result: 3.55e-05

Query: Thanks! And C34U U69G C71U ?
Result: 0.000948

Working through the 3 variants below one at a time, give self-cleavage kobs at 640 uM GlcN6P for each.
1. U31C G37A
2. C11A G44U G59U
3. U46G A48U

Result:
0.000113
7.85e-05
3.53e-05

Reference source for all entries: the supplement of paper PMC7125110
